Every entry's value here was drawn from the supplement of paper PMC9732359.

Test: protein stability index of a GFP-peptide fusion (yeast GPS) (PSI 1-4); higher = more stable; sorted into four equal gates, so the index is relative within each strain
Conditions: ubr1∆
# protein stability index listing for each entry below
Answer field: number only, no words.

>>> measured_result("TPIIFIGTGEHIHDLEK [SRP54]")
2.45

Ask: Item QFVETIVSKSIEMYVQE [RPN2] has what recorded protein stability index?
Reply: 1.15

Ask: Form field: reported protein stability index of TITKRNGAFQNSSNLSY [RRP4]
Reply: 3.11

Ask: Would you mind telling me what protein stability index value was observed for LEKTSRILNFFDKNTKT [YMR153W/NUP53] ?
Reply: 2.7
